Below, each of the sequences is paired with its reported self-splicing fitness (ln) value.
- Protocol Details: self-splicing fitness, log relative to wild type (ln ratio); higher = more splicing; Tetrahymena group I intron in knt gene, E. coli kanamycin selection, DiMSum; sequences stand for … in CUCUCU…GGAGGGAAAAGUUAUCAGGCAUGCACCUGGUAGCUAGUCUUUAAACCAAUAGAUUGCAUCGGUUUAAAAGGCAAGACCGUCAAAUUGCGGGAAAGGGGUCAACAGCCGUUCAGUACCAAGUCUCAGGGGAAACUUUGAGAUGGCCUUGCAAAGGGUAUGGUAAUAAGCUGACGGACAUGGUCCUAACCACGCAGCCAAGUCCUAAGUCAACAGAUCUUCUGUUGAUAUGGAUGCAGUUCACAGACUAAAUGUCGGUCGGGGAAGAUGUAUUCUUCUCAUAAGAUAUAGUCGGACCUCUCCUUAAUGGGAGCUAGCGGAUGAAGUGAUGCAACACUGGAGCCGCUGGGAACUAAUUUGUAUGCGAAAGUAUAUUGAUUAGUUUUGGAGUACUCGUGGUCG;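 further: selection with 25 µg/mL kanamycin versus none on LB agar overnight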
- Applied Conditions: 37 °C

- Macromolecule Sequence: "AUGUAGCAAUAUUACGGUAC"
  self-splicing fitness (ln): -1.89
- Macromolecule Sequence: "CUCGAGCAAUAUUACGAUGU"
  self-splicing fitness (ln): -2.06
- Macromolecule Sequence: "UGUUAGCAAUAUUACGUGCA"
  self-splicing fitness (ln): 0.0583
- Macromolecule Sequence: "AAGCAGCAAUAUUACGCGGU"
  self-splicing fitness (ln): -2.55
- Macromolecule Sequence: "CUUAAGCAAUAUUACGGUAA"
  self-splicing fitness (ln): -3.38
- Macromolecule Sequence: "GGUCAGCAAUAUUACGGCAA"
  self-splicing fitness (ln): 0.217
- Macromolecule Sequence: "UUAUAGCAAUAUUACGUACC"
  self-splicing fitness (ln): -3.01
- Macromolecule Sequence: "GCACAGCAAUAUUACGAGCG"
  self-splicing fitness (ln): -0.171
- Macromolecule Sequence: "UGCAAGCAAUAUUACGAACC"
  self-splicing fitness (ln): -0.525
- Macromolecule Sequence: "CUCGAGCAAUAUUACGACUU"
  self-splicing fitness (ln): -1.73
- Macromolecule Sequence: "CUCUAGCAAUAUUACGAACU"
  self-splicing fitness (ln): -4.2
- Macromolecule Sequence: "CCGCAGCAAUAUUACGACUC"
  self-splicing fitness (ln): -2.02
- Macromolecule Sequence: "AAUGAGCAAUAUUACGAUGU"
  self-splicing fitness (ln): -1.97
- Macromolecule Sequence: "AGGUAGCAAUAUUACGGGGU"
  self-splicing fitness (ln): -2.94
- Macromolecule Sequence: "GCAAAGCAAUAUUACGCAGC"
  self-splicing fitness (ln): -2.46
- Macromolecule Sequence: "CCAGAGCAAUAUUACGAAGA"
  self-splicing fitness (ln): -2.84
- Macromolecule Sequence: "GAACAGCAAUAUUACGCCCG"
  self-splicing fitness (ln): -0.797
- Macromolecule Sequence: "CACCAGCAAUAUUACGCUAA"
  self-splicing fitness (ln): -2.33
- Macromolecule Sequence: "AUACAGCAAUAUUACGCACU"
  self-splicing fitness (ln): 0.0538
- Macromolecule Sequence: "CCACAGCAAUAUUACGCACG"
  self-splicing fitness (ln): -0.626
- Macromolecule Sequence: "AUCCAGCAAUAUUACGGUUU"
  self-splicing fitness (ln): -0.324
- Macromolecule Sequence: "ACAAAGCAAUAUUACGAAGU"
  self-splicing fitness (ln): -2.06
- Macromolecule Sequence: "GUAGAGCAAUAUUACGCGAG"
  self-splicing fitness (ln): -0.548
- Macromolecule Sequence: "GUCUAGCAAUAUUACGGAUC"
  self-splicing fitness (ln): -1.85
- Macromolecule Sequence: "GUACAGCAAUAUUACGAGAA"
  self-splicing fitness (ln): -1.51
- Macromolecule Sequence: "GUUCAGCAAUAUUACGGGCG"
  self-splicing fitness (ln): -0.592
- Macromolecule Sequence: "UGGGAGCAAUAUUACGAAAA"
  self-splicing fitness (ln): -2.16
- Macromolecule Sequence: "CCGGAGCAAUAUUACGUAGA"
  self-splicing fitness (ln): -2.66
- Macromolecule Sequence: "AACAAGCAAUAUUACGCUGG"
  self-splicing fitness (ln): -1.04
- Macromolecule Sequence: "UUUCAGCAAUAUUACGCCGG"
  self-splicing fitness (ln): -1.68
- Macromolecule Sequence: "GAAAAGCAAUAUUACGAAGU"
  self-splicing fitness (ln): -0.976
- Macromolecule Sequence: "GUAUAGCAAUAUUACGAAGG"
  self-splicing fitness (ln): -1.61
- Macromolecule Sequence: "CAGCAGCAAUAUUACGCUGU"
  self-splicing fitness (ln): -2.36
- Macromolecule Sequence: "GACGAGCAAUAUUACGAUCU"
  self-splicing fitness (ln): -1.13
- Macromolecule Sequence: "GUUUAGCAAUAUUACGAACU"
  self-splicing fitness (ln): -2.69
- Macromolecule Sequence: "AGCAAGCAAUAUUACGCCAC"
  self-splicing fitness (ln): -3.33
- Macromolecule Sequence: "AUCAAGCAAUAUUACGAUGG"
  self-splicing fitness (ln): -2.67
- Macromolecule Sequence: "CAACAGCAAUAUUACGAAUU"
  self-splicing fitness (ln): -1.84
- Macromolecule Sequence: "ACCUAGCAAUAUUACGGCCG"
  self-splicing fitness (ln): -1
- Macromolecule Sequence: "CACUAGCAAUAUUACGCAGU"
  self-splicing fitness (ln): -2.78
- Macromolecule Sequence: "UGUUAGCAAUAUUACGACAC"
  self-splicing fitness (ln): -2.08
- Macromolecule Sequence: "UACAAGCAAUAUUACGAAGU"
  self-splicing fitness (ln): -1.97
- Macromolecule Sequence: "UUGAAGCAAUAUUACGCGGA"
  self-splicing fitness (ln): -0.506
- Macromolecule Sequence: "CUGUAGCAAUAUUACGAGGA"
  self-splicing fitness (ln): -1.62
- Macromolecule Sequence: "AUACAGCAAUAUUACGAUCA"
  self-splicing fitness (ln): -0.37
- Macromolecule Sequence: "AGGCAGCAAUAUUACGUCGU"
  self-splicing fitness (ln): -0.962
- Macromolecule Sequence: "UGUGAGCAAUAUUACGGUAA"
  self-splicing fitness (ln): -2.25
- Macromolecule Sequence: "CUGCAGCAAUAUUACGUGUG"
  self-splicing fitness (ln): -1.27
- Macromolecule Sequence: "UCUAAGCAAUAUUACGCUCU"
  self-splicing fitness (ln): -2.58
- Macromolecule Sequence: "AGGAAGCAAUAUUACGUAAU"
  self-splicing fitness (ln): -1.42
- Macromolecule Sequence: "UGUAAGCAAUAUUACGCCUA"
  self-splicing fitness (ln): 0.331
- Macromolecule Sequence: "GUAUAGCAAUAUUACGCCUU"
  self-splicing fitness (ln): -0.499
- Macromolecule Sequence: "AGAUAGCAAUAUUACGGUAU"
  self-splicing fitness (ln): -0.614
- Macromolecule Sequence: "AUACAGCAAUAUUACGGUGG"
  self-splicing fitness (ln): -2.92
- Macromolecule Sequence: "ACAGAGCAAUAUUACGGAAG"
  self-splicing fitness (ln): -2.12
- Macromolecule Sequence: "UCGAAGCAAUAUUACGUCAG"
  self-splicing fitness (ln): -0.968
- Macromolecule Sequence: "AUCGAGCAAUAUUACGUUAA"
  self-splicing fitness (ln): -2.48
- Macromolecule Sequence: "ACGAAGCAAUAUUACGCAAG"
  self-splicing fitness (ln): -0.171
- Macromolecule Sequence: "CCCAAGCAAUAUUACGUCAA"
  self-splicing fitness (ln): -2.3
- Macromolecule Sequence: "UGCCAGCAAUAUUACGGCAU"
  self-splicing fitness (ln): -3.23

Where do these numbers come from? They come from the supplement of paper PMC7877785.
